# assay_notes: yeast display, Sf9 membrane polyspecificity reagent, FACS + sequencing; frameworks hold sequencing errors

{"columns": ["chain", "polyreactivity (PSR sort gate)"],
 "data": [
  ["QVQLEDSGGGLVQAGGTLRLRCAASGITFGTNDMGWYRKAPGKETELVAAIDGSGETYYADSVKGRFTISRDNAKNTVYLLMNSLKPVDTAVYYCAADVIYWFSGEYDYWGQGTQVIVSS", "low polyreactivity"],
  ["QVQLVESGGGLVQAGGSLRLSCADSGSIFWLYAMGWYRQAPGKERELVAAIDSGDSTKYADSVKGRFTISRDNAKNTVYLQMNSLKPEDTAVYYCNASRRYHVRAPYDYWGQGTQVTVSS", "low polyreactivity"],
  ["QVQLVESGGGLVQAGGSLRLSCAASGRIFIYNAMGWYRQAPGKEREFVAAISRTGGNTYYADSVKGRFTISRDNAKNTVYLQMNSLKPEDTAVYYCATKRKWTYLSYDYWGQGTQVTVSS", "low polyreactivity"],
  ["QVQLVESGGGLVQAGGSLRLSCAASASTVSRYAMGWYRQAPGKEREVVAGISWSGGNTYSADSVKGRFTISRDNAKNTVYLQMNSLKPEDTAVYYCAADFLDYWGVYGWAEYEYWGQGTQVTVSS", "low polyreactivity"],
  ["QVQLVESGGGLVQAGGSLRLSFAASGRIFYNYAMGWYRQAPGTERELVAAITDSDGSTYADSVKGRFTISRDNAMNTVYFQMNSLKPEDTAVYYCAARRYYPYKYRYGYWGQGTQVTVSS", "high polyreactivity"],
  ["QVQLVESGGGLVQAGGSLRLSCAASGRTFKYYALGWYRQAPGKERELVAAISNGGRTNYADSVKGRFTISRDNAKNTVYLQMNSLKPEDTAFYYCAKRTFYFSDYDYWGQGTQVTVSS", "high polyreactivity"],
  ["QVQLVESGGGLVQAGGSLRLSCAASGFIFPYYDMGWYRQAPGKEREFVAAITKSGGRTYYADSVKGRFTISRDNAKNTVYLQMNSLKPEDTAVYYCNADDPDYLVSYRYDYWGQGTQVTVSS", "low polyreactivity"],
  ["QVQLVESGGGLVQAGGSLRLSCAASGRIFGRYAMGWYRQAPGKERELVAVISARGARTYYADSVKGRFTISRDNAKHTVYLQMNSLKPEDTAVYYCAVDQYATDDYWGQGTQVTVSS", "high polyreactivity"],
  ["QVQLVESGGGLVQAGGSLRLSCAASGSMFITYTMGWYRQAPGKERELVAAITWDGGSTYYADSVKGRFTISRDNAKNTVYLQMNSLKPEDTAVYYCAKDVILVWPYATGRDYWGQGTQVTVSS", "low polyreactivity"],
  ["QVQLVESGGGLVQAGGSLRLSCAASGSIITWNAMGWYRQAPGKERELVAAIDWDGGSTYYADSVKGRFTISRDNAKNTVYLQMNSLKPEDSAVYYCAATYGWYTGRYPSGHYYYWGQGTQVTVSS", "low polyreactivity"],
  ["QVQLVESGGGLVQAGGSLSLSCAASGITFSYYAMGWYRQAPGNERELVASINFSGGSTSYADSVKGRFTISRDNAKITVYFQMNSLKPEDPAVYYCAAQIWSKDEKHDYWGQGTKVTVSS", "high polyreactivity"],
  ["QVQLVESCGGLVQAGGSLRLSCAASGSTFDGYAMGWYRQAPVKERELVAAISASGGSTYYADSVKGRFTISRDNAKNTVYLQMNSLKPEDTAVYYCNSEPFDLWAFYYCYVYGYYHWGQGTQVTVSS", "high polyreactivity"],
  ["QVQLVESGGGLVQAGGSLRLSCAASGRTFGDYAMGWYRQAPGKERELVAAISSSGGRTYYADSVKGRFTISRDNAKNTVYLQMNSLKPEDTAVYYCATDYLYVYGFEYYYWGQGTQVTVSS", "high polyreactivity"],
  ["QVQLVESGGGLVQAGGSLRLSCAASGRIFYYYAMGWYRPAPGKERELVAAITSGGRTYYADSVKGRFTISRDNAKNTVYLQMNSLKPEDTAVYYCAAERTYTYLGPGYEYWGQGTQVTVSS", "low polyreactivity"],
  ["QVQLVESGGGIVQAGGSLRLSCAASGRIFLSYAMGWYRQAPGKERELVAAISRNGGSTYYADSVKGRFTISRDNGKNTVYLPMNSLKPEDTAVYYCAAGGDYWGQGTQVTVSS", "high polyreactivity"],
  ["QVQLVESGGGLVQAGGSLRLSCAASGIIFSIYALGWYRPAAGKERELVAAITYSGGRTYYADSVKGRFTISRDNAKNSVYLQMNSLKPEDTAVYYCAAVGYGEYYWGQGTQVTVSS", "high polyreactivity"]
]}
